biological target: human proteasome subunit β2c (Homo sapiens, UniProt Q99436); assay: Competitive ABPP in Raji cell lysates; type: biochemical; settings: read-out: Apparent IC50 β2c; Raji cell lysates; Table 6
Sequence (Q99436 44-277): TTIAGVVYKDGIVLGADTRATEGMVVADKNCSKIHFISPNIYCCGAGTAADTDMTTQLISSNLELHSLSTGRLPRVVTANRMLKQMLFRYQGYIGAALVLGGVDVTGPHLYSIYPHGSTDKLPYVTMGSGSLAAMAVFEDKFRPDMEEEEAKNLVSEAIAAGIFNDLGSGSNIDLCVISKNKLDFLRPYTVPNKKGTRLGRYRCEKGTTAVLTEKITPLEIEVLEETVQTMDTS
Experimental Readout: IC50

Illustrative cases are given below, each with its answer.
• COc1ccc(C[C@H](NC(=O)[C@H](C)NC(=O)CN2CCOCC2)C(=O)N[C@@H](C[C@@H]2CCCC3CCCCC32)C(=O)[C@@]2(C)CO2)cc1 (some centres unmarked) [Compound 77, Morp-Ala-Tyr(Me)-1-DecAla-EK] = 28 µM
• COc1ccc(C[C@H](NC(=O)[C@H](C)NC(=O)CN2CCOCC2)C(=O)N[C@@H](C[C@H]2CCCc3ccccc32)C(=O)[C@@]2(C)CO2)cc1 [Compound 68, Morp-Ala-Tyr(Me)-1-(R)-TetraNal-EK] = > 100 µM
• COc1ccc(C[C@H](NC(=O)[C@H](C)NC(=O)CN2CCOCC2)C(=O)N[C@@H](C[C@H]2CCCC3CCCCC32)C(=O)[C@@]2(C)CO2)cc1 (some centres unmarked) [Compound 74, Morp-Ala-Tyr(Me)-1-DecAla-EK] = > 100 µM
• COc1ccc(C[C@H](NC(=O)[C@H](C)NC(=O)CN2CCOCC2)C(=O)N[C@@H](C[C@H]2CCC[C@@H]3CCCC[C@@H]32)C(=O)[C@@]2(C)CO2)cc1 [Compound 86, Morp-Ala-Tyr(Me)-1-DecAla-EK] = > 100 µM

Now, please, on to the next compound.
Prompt: So what's the measured IC50 for this one? COc1ccc(C[C@H](NC(=O)[C@H](C)NC(=O)CN2CCOCC2)C(=O)N[C@@H](C[C@@H]2CCCc3ccccc32)C(=O)[C@@]2(C)CO2)cc1 [Compound 71, Morp-Ala-Tyr(Me)-1-(S)-TetraNal-EK]
Completion: > 100 µM
